- Tested on: SU-DHL10
- testMethodNotes: Antiproliferative activity against human SU-DHL-10 cells assessed as proliferating cells at 1 uM incubated for 72 hrs by MTT assay relative to control
- Format: functional
Below, each entry is listed with its recorded Activity.

chemicalSmiles | Activity
COc1ccc(Cn2cc3c(c2-c2cc(OC)c(OC)c(OC)c2)CCc2c(CN4CCOCC4)noc2-3)cc1 | 0.7%
COc1ccc(Cn2cc3c(c2-c2cc(OC)c(OC)c(OC)c2)CCc2c(CN4CCCC4)noc2-3)cc1 | 0.3%
COc1ccc(Cn2cc3c(c2-c2cc(OC)c(OC)c(OC)c2)CCc2c(CO)noc2-3)cc1 | 62.1%
COc1cccc(Cn2cc3c(c2)-c2oncc2CC3)c1 | 14%
COc1ccc(Cn2cc3c(c2-c2ccccc2)CCc2cnoc2-3)cc1N | 13%

====

- Test system: TK-10
- testMethodNotes: Antiproliferative activity against human TK-10 cells assessed as cell growth inhibition incubated for 72 hrs by MTT assay
- Assay type: functional
Below, each entry is listed with its recorded GI50.

chemicalSmiles | GI50
COc1ccc(Cn2cc3c(c2-c2cc(OC)c(OC)c(OC)c2)CCc2c(CN4CCCC4)noc2-3)cc1 | 23.4 µM
COc1ccc(Cn2cc3c(c2-c2cc(OC)c(OC)c(OC)c2)CCc2c(CN4CCOCC4)noc2-3)cc1 | > 100 µM
CCOC(=O)c1noc2c1CCc1c-2cn(Cc2ccc(OC)cc2)c1-c1cc(OC)c(OC)c(OC)c1 | > 100 µM
COc1ccc(Cn2cc3c(c2-c2cc(OC)c(OC)c(OC)c2)CCc2c(CO)noc2-3)cc1 | 17.7 µM

====

- System: MDA-MB-435
- testMethodNotes: Antiproliferative activity against human MDA-MB-435 cells assessed as cell growth inhibition incubated for 72 hrs by MTT assay
- Assay type: functional
testReadout: GI50 (nM)

chemicalSmiles | testReadout | obsValue
CCOC(=O)c1noc2c1CCc1c-2cn(Cc2ccc(OC)cc2)c1-c1cc(OC)c(OC)c(OC)c1 | GI50 | 570
COc1ccc(Cn2cc3c(c2-c2cc(OC)c(OC)c(OC)c2)CCc2c(CN4CCOCC4)noc2-3)cc1 | GI50 | 250
COc1ccc(Cn2cc3c(c2-c2cc(OC)c(OC)c(OC)c2)CCc2c(CO)noc2-3)cc1 | GI50 | 30
COc1ccc(Cn2cc3c(c2-c2cc(OC)c(OC)c(OC)c2)CCc2c(CN4CCCC4)noc2-3)cc1 | GI50 | 240

====

- Test system: RXF 393
- testMethodNotes: Antiproliferative activity against human RXF 393 cells assessed as cell growth inhibition incubated for 72 hrs by MTT assay
- Assay type: functional
Below, each entry is listed with its recorded GI50.
testReadout: GI50 (nM)

chemicalSmiles | testReadout | obsValue
COc1ccc(Cn2cc3c(c2-c2cc(OC)c(OC)c(OC)c2)CCc2c(CO)noc2-3)cc1 | GI50 | 160
COc1ccc(Cn2cc3c(c2-c2cc(OC)c(OC)c(OC)c2)CCc2c(CN4CCOCC4)noc2-3)cc1 | GI50 | 290
CCOC(=O)c1noc2c1CCc1c-2cn(Cc2ccc(OC)cc2)c1-c1cc(OC)c(OC)c(OC)c1 | GI50 | 2170
COc1ccc(Cn2cc3c(c2-c2cc(OC)c(OC)c(OC)c2)CCc2c(CN4CCCC4)noc2-3)cc1 | GI50 | 890

====

- Test system: HOP-92
- testMethodNotes: Antiproliferative activity against human HOP-92 cells assessed as cell growth inhibition incubated for 72 hrs by MTT assay
- Assay type: functional
Below, each entry is listed with its recorded GI50.

chemicalSmiles | measureUnit | GI50
COc1ccc(Cn2cc3c(c2-c2cc(OC)c(OC)c(OC)c2)CCc2c(CO)noc2-3)cc1 | nM | 3390
COc1ccc(Cn2cc3c(c2-c2cc(OC)c(OC)c(OC)c2)CCc2c(CN4CCOCC4)noc2-3)cc1 | nM | 900
COc1ccc(Cn2cc3c(c2-c2cc(OC)c(OC)c(OC)c2)CCc2c(CN4CCCC4)noc2-3)cc1 | nM | 1350
CCOC(=O)c1noc2c1CCc1c-2cn(Cc2ccc(OC)cc2)c1-c1cc(OC)c(OC)c(OC)c1 | nM | 2720

====

- System: Hs-578T
- testMethodNotes: Antiproliferative activity against human Hs-578T cells assessed as cell growth inhibition incubated for 72 hrs by MTT assay
- Assay type: functional

chemicalSmiles | GI50, µM
COc1ccc(Cn2cc3c(c2-c2cc(OC)c(OC)c(OC)c2)CCc2c(CN4CCOCC4)noc2-3)cc1 | 0.5
COc1ccc(Cn2cc3c(c2-c2cc(OC)c(OC)c(OC)c2)CCc2c(CN4CCCC4)noc2-3)cc1 | 1.8
COc1ccc(Cn2cc3c(c2-c2cc(OC)c(OC)c(OC)c2)CCc2c(CO)noc2-3)cc1 | 0.41
CCOC(=O)c1noc2c1CCc1c-2cn(Cc2ccc(OC)cc2)c1-c1cc(OC)c(OC)c(OC)c1 | 2.99

====

- Test system: SK-MEL-5
- testMethodNotes: Antiproliferative activity against human SK-MEL-5 cells assessed as cell growth inhibition incubated for 72 hrs by MTT assay
- Format: functional

chemicalSmiles | GI50
COc1ccc(Cn2cc3c(c2-c2cc(OC)c(OC)c(OC)c2)CCc2c(CN4CCCC4)noc2-3)cc1 | 1020 nM
COc1ccc(Cn2cc3c(c2-c2cc(OC)c(OC)c(OC)c2)CCc2c(CN4CCOCC4)noc2-3)cc1 | 1860 nM
COc1ccc(Cn2cc3c(c2-c2cc(OC)c(OC)c(OC)c2)CCc2c(CO)noc2-3)cc1 | 210 nM
CCOC(=O)c1noc2c1CCc1c-2cn(Cc2ccc(OC)cc2)c1-c1cc(OC)c(OC)c(OC)c1 | 490 nM

====

- Tested on: UACC-62
- testMethodNotes: Antiproliferative activity against human UACC-62 cells assessed as cell growth inhibition incubated for 72 hrs by MTT assay
- Assay type: functional

chemicalSmiles | target | GI50
COc1ccc(Cn2cc3c(c2-c2cc(OC)c(OC)c(OC)c2)CCc2c(CN4CCOCC4)noc2-3)cc1 | UACC-62 | 610 nM
CCOC(=O)c1noc2c1CCc1c-2cn(Cc2ccc(OC)cc2)c1-c1cc(OC)c(OC)c(OC)c1 | UACC-62 | 2740 nM
COc1ccc(Cn2cc3c(c2-c2cc(OC)c(OC)c(OC)c2)CCc2c(CO)noc2-3)cc1 | UACC-62 | 250 nM
COc1ccc(Cn2cc3c(c2-c2cc(OC)c(OC)c(OC)c2)CCc2c(CN4CCCC4)noc2-3)cc1 | UACC-62 | 550 nM

====

Below, each entry is listed with its recorded Activity.
- Tested on: SU-DHL10
- testMethodNotes: Antiproliferative activity against human SU-DHL-10 cells assessed as proliferating cells at 1 uM incubated for 72 hrs by MTT assay relative to control
- Format: functional
testReadout: Activity

chemicalSmiles | obsValue
COc1ccc(Cn2cc3c(c2-c2cc(OC)c(OC)c(OC)c2)CCc2cnoc2-3)cc1N | 12%
COc1ccc(Cn2cc3c(c2-c2ccccc2)CCc2cnoc2-3)cc1 | 13%
COc1cc(Cn2cc3c(c2)-c2oncc2CC3)cc(OC)c1OC | 13.8%
COc1ccc(Cn2cc3c(c2-c2ccc(OC)cc2)CCc2cnoc2-3)cc1 | 47.4%
CCOC(=O)c1noc2c1CCc1c-2cn(Cc2ccc(OC)cc2)c1-c1cc(OC)c(OC)c(OC)c1 | 59%
COc1ccc(Cn2cc3c(c2-c2cc(OC)c(OC)c(OC)c2)CCc2cnoc2-3)cc1 | 12.7%
COc1cc(Cn2cc3c(c2)-c2oncc2CC3)cc(OC)c1 | 30.5%

====

- testMethodNotes: Antiproliferative activity against human MINO cells assessed as inhibition of cell proliferation incubated for 72 hrs by MTT assay
- Type: functional, cell-based
Rule: IC50 below 500 nM gives Satisfied, anything at or above gives Not satisfied.

chemicalSmiles | cat
COc1ccc(Cn2cc3c(c2-c2cc(OC)c(OC)c(OC)c2)CCc2cnoc2-3)cc1N | Satisfied
COc1cc(Cn2cc3c(c2)-c2oncc2CC3)cc(OC)c1 | Satisfied
CCOC(=O)c1noc2c1CCc1c-2cn(Cc2ccc(OC)cc2)c1-c1cc(OC)c(OC)c(OC)c1 | Not satisfied
COc1ccc(Cn2cc3c(c2-c2ccc(OC)cc2)CCc2cnoc2-3)cc1 | Not satisfied
COc1ccc(Cn2cc3c(c2-c2ccccc2)CCc2cnoc2-3)cc1 | Satisfied
COc1ccc(Cn2cc3c(c2-c2cc(OC)c(OC)c(OC)c2)CCc2cnoc2-3)cc1 | Satisfied
COc1cccc(Cn2cc3c(c2)-c2oncc2CC3)c1 | Not satisfied
COc1ccc(Cn2cc3c(c2-c2ccccc2)CCc2cnoc2-3)cc1N | Satisfied
COc1cc(Cn2cc3c(c2)-c2oncc2CC3)cc(OC)c1OC | Satisfied
COc1ccc(Cn2cc3c(c2-c2cc(OC)c(OC)c(OC)c2)CCc2c(CO)noc2-3)cc1 | Not satisfied

Where do these numbers come from? They come from ChEMBL document CHEMBL5352447.
